Where do these numbers come from? They come from the supplement of paper PMC7877785.

Experiment: self-splicing fitness, log relative to wild type (ln ratio); higher = more splicing; Tetrahymena group I intron in knt gene, E. coli kanamycin selection, DiMSum; sequences stand for … in CUCUCU…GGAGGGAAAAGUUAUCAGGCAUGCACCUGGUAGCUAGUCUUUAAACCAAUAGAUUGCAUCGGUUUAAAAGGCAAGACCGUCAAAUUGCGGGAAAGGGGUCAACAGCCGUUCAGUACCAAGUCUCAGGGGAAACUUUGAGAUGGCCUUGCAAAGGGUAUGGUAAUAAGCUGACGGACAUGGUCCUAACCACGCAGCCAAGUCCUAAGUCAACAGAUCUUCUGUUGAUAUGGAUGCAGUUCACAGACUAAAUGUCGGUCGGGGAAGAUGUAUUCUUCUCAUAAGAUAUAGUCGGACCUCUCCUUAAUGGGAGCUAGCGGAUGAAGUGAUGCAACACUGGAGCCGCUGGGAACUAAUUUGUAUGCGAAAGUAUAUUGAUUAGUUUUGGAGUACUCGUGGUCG;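 note: selection with 25 µg/mL kanamycin versus none on LB agar overnight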
Details: 37 °C
MEASURE: self-splicing fitness (ln)

>>> df
        polymer_sequence                     measure  numeric_readout
 0  UUUCAGCAAUAUUACGACUC  self-splicing fitness (ln)            -0.13
 1  UAAAAGCAAUAUUACGCCGC  self-splicing fitness (ln)            -1.17
 2  AUAAAGCAAUAUUACGAGUU  self-splicing fitness (ln)           -0.509
 3  ACCCAGCAAUAUUACGGCUU  self-splicing fitness (ln)            0.053
 4  CUUAAGCAAUAUUACGCAUU  self-splicing fitness (ln)            -1.92
 5  UAAAAGCAAUAUUACGGCUC  self-splicing fitness (ln)            0.168
 6  GGAAAGCAAUAUUACGCGGA  self-splicing fitness (ln)           -0.353
 7  GUCUAGCAAUAUUACGCUAC  self-splicing fitness (ln)            -2.57
 8  GUAUAGCAAUAUUACGCUCA  self-splicing fitness (ln)           -0.615
 9  GCGUAGCAAUAUUACGAUAA  self-splicing fitness (ln)           -0.707
10  AGCGAGCAAUAUUACGGGGU  self-splicing fitness (ln)            -1.59
11  ACGAAGCAAUAUUACGCUUG  self-splicing fitness (ln)           -0.259
12  ACAUAGCAAUAUUACGCCAG  self-splicing fitness (ln)             -1.5
13  AAGAAGCAAUAUUACGGGGU  self-splicing fitness (ln)            -2.64
14  AGCUAGCAAUAUUACGAGGU  self-splicing fitness (ln)            -1.31
15  GUGAAGCAAUAUUACGGACA  self-splicing fitness (ln)           -0.366

----------
Overview of recorded self-splicing fitness (ln) for various sequences
Assay: self-splicing fitness, log relative to wild type (ln ratio); higher = more splicing; Tetrahymena group I intron in knt gene, E. coli kanamycin selection, DiMSum; sequences stand for … in CUCUCU…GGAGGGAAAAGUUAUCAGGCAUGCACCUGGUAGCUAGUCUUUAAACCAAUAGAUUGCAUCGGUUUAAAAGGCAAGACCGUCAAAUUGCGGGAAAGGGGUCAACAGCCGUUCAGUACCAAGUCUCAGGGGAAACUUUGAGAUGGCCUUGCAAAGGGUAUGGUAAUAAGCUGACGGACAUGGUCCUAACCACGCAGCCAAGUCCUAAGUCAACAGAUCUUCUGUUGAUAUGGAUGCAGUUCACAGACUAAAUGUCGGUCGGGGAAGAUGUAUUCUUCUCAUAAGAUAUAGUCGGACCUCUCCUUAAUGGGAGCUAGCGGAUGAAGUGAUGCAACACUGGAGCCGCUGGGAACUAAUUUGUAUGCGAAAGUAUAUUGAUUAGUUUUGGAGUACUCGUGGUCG
Conditions: 37 °C
MEASURE: self-splicing fitness (ln)

In [3]: df
Out[3]:
        polymer_sequence                     measure  numeric_readout
 0  GUUGAGCAAUAUUACGGAGC  self-splicing fitness (ln)            -2.82
 1  GGGUAGCAAUAUUACGUAGC  self-splicing fitness (ln)           -0.648
 2  AUAAAGCAAUAUUACGAGAG  self-splicing fitness (ln)            -1.03
 3  UAUGAGCAAUAUUACGCAAC  self-splicing fitness (ln)            -2.49
 4  UUCGAGCAAUAUUACGCUAC  self-splicing fitness (ln)          -0.0805
 5  UCCCAGCAAUAUUACGGGUG  self-splicing fitness (ln)           -0.507
 6  UUUGAGCAAUAUUACGUUGU  self-splicing fitness (ln)            -2.46
 7  GACUAGCAAUAUUACGACCC  self-splicing fitness (ln)            0.392
 8  ACCUAGCAAUAUUACGUUCC  self-splicing fitness (ln)           -0.914
 9  UCACAGCAAUAUUACGUCGG  self-splicing fitness (ln)           -0.796
10  GCUCAGCAAUAUUACGGCGU  self-splicing fitness (ln)            0.324
11  GGUAAGCAAUAUUACGAGCA  self-splicing fitness (ln)           -0.377
12  UCGCAGCAAUAUUACGCAUA  self-splicing fitness (ln)          -0.0771
13  UGUCAGCAAUAUUACGGUGA  self-splicing fitness (ln)           -0.355
14  AUCAAGCAAUAUUACGUUGC  self-splicing fitness (ln)               -2
15  GUGGAGCAAUAUUACGUAAC  self-splicing fitness (ln)           -0.991
